- systemUnderTest: UniProtKB O00408
- Sequence (O00408 other isoform, or with tags, fused parts or gaps): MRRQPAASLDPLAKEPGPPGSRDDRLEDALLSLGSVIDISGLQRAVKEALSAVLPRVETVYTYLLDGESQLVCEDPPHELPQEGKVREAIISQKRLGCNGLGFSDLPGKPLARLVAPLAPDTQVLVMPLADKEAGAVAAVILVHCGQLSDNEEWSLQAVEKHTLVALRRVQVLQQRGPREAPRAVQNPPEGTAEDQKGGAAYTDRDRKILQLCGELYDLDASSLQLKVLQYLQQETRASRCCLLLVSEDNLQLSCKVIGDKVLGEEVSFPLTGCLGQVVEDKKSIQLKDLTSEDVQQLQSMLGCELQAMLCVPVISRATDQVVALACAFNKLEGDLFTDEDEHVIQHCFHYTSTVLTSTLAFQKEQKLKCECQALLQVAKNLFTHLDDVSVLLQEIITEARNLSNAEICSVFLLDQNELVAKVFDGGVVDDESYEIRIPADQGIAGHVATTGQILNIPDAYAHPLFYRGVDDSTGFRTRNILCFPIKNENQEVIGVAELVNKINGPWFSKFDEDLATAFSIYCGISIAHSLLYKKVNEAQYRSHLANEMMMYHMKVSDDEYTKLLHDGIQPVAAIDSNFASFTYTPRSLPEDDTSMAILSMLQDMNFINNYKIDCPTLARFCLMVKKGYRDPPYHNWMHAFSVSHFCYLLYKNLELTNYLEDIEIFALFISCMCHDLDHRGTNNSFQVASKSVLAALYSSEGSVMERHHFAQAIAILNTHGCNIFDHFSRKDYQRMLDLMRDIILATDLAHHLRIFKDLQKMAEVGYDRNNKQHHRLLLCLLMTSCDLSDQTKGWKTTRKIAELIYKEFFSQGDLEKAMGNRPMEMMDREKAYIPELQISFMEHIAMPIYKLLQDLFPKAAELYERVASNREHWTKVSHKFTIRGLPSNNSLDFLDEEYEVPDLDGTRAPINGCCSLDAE
- assaySummary: PDE2 IMAP FP inhibition assay, human PDE2A1 (selectivity panel format)
- Type: biochemical
- runConditions: Lab B; read-out: Human PDE2 Ki (nM) - Lab B
reportedMetric: Ki (nM)

INSERT INTO results (molecule, quantitativeresult) VALUES
  ('CN(C)c1nc(C(=O)NC(C#N)c2ccc(C(F)(F)F)cc2)cc(=O)[nH]1 (stereo not shown)', 27),
  ('CO[C@H]1CCN(c2nc(C(=O)N[C@@H](c3ccc(C(F)(F)F)cc3)C(C)(C)C)cc(=O)[nH]2)C1', 0.11),
  ('CN(C)c1nc(C(=O)N[C@@H](c2ccc(OC(F)(F)F)c(F)c2)C(C)(C)O)cc(=O)[nH]1', 0.12);

(1) O=C(N[C@@H](c1ccc(OC(F)(F)F)cc1)C1CC1)c1cc(=O)[nH]c(N2CCCC2)n1
(2) CN(C)c1nc(C(=O)N[C@@H](c2ccc(CC(F)(F)F)cc2)C(C)(C)C)cc(=O)[nH]1
### Prompt Given 1 and 2 , report the one with the higher recorded Ki. Label of pick, please.
### Response 1
(1: 1.5 nM, 2: 0.51 nM)

* * *

- systemUnderTest: P-glycoprotein (P-gp) (Homo sapiens (Human))
- Sequence (P08183 whole entry): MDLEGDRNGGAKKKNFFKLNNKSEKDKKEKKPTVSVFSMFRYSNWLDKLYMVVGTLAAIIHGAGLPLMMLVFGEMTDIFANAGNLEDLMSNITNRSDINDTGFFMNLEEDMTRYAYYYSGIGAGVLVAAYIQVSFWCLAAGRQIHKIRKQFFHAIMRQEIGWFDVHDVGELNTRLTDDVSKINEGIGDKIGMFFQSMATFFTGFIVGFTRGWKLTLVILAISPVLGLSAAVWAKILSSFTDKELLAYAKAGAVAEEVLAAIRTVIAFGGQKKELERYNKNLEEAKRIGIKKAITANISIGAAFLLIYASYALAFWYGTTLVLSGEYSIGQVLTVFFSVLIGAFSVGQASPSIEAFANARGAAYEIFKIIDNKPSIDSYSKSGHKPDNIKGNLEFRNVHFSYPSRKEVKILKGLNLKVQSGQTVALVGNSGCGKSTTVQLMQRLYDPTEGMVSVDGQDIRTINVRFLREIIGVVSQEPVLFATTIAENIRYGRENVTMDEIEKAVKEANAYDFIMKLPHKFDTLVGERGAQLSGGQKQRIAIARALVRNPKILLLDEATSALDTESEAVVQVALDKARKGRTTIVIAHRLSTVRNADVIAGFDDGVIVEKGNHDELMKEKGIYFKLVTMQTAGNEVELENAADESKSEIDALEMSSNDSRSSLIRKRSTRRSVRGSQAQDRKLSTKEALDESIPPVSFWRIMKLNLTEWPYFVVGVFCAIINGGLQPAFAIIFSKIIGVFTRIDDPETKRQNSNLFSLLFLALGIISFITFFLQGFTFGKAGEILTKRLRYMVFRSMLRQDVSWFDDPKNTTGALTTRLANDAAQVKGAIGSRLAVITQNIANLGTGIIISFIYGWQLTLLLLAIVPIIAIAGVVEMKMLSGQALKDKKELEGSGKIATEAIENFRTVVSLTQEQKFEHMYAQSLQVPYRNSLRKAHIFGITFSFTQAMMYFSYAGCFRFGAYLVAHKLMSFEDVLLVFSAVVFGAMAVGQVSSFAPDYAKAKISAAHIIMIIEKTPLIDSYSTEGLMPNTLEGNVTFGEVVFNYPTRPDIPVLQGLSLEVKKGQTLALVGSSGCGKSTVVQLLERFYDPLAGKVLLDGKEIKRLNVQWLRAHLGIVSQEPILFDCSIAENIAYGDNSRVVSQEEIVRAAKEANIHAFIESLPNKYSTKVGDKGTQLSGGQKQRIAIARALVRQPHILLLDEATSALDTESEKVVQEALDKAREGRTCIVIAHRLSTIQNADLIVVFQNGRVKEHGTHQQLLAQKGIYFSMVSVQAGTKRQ
- assaySummary: P-gp transport, experimental BA/AB ratio, human
- Assay type: in vitro ADME
- runConditions: LLC-PK1, 1 μM substrate concentration
reportedMetric: efflux ratio at 1 μM

INSERT INTO measurements (smilesstructure, quantitativeresult) VALUES
  ('C[C@@H](NC(=O)c1cc(=O)[nH]c(N2CCC(F)(F)C2)n1)c1ccc(C(F)(F)F)cc1', 0.6),
  ('CN(C)c1nc(C(=O)NC2(c3ccc(S(F)(F)(F)(F)F)cc3)CC2)cc(=O)[nH]1', 0.6);

(1) CN(C)c1nc(C(=O)N[C@@H](c2ccc(S(F)(F)(F)(F)F)cc2)C2CC2)cc(=O)[nH]1
(2) CN(C)c1nc(C(=O)N[C@@H](c2ccc(S(F)(F)(F)(F)F)cc2)C(C)(C)C)cc(=O)[nH]1
### Prompt Lower value for measured efflux ratio at 1 μM? Options: 1 , 2 Lab log: write the label of the selected item as the result.
### Response 1

* * *

- systemUnderTest: Rhesus PDE2A3 (Macaca mulatta, UniProt B3VTJ2)
- Sequence (B3VTJ2 1-941): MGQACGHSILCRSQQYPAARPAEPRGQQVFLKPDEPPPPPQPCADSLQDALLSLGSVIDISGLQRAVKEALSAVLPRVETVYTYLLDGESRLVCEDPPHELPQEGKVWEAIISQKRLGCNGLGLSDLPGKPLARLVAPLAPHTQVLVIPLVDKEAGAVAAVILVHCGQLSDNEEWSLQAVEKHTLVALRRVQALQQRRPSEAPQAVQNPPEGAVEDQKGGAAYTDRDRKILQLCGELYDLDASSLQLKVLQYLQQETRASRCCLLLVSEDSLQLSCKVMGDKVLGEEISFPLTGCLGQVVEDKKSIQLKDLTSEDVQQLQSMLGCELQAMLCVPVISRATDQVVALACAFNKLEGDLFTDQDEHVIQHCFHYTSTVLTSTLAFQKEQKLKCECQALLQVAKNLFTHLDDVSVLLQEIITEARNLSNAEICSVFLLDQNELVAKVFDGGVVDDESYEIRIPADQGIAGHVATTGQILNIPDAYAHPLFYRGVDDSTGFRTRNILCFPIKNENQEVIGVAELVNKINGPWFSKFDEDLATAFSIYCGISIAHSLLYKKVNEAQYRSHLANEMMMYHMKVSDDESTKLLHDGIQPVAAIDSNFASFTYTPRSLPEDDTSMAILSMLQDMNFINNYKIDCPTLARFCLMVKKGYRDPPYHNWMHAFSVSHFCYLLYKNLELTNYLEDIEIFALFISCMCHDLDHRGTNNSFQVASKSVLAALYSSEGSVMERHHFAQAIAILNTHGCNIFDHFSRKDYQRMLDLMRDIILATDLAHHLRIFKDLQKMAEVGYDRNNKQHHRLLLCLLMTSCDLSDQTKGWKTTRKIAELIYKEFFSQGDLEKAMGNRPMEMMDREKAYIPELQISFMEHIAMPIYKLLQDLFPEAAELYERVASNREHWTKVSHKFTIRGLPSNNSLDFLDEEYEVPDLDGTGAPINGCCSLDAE
- assaySummary: PDE2 fluorescence polarization (IMAP FP) inhibition assay, rhesus PDE2A3
- Type: biochemical, rhesus macaque
- runConditions: Lab A; read-out: Rhesus PDE2 Ki (nM) - Lab A
reportedMetric: Ki (nM)

INSERT INTO measurements (smilesstructure, reportedmetric, measurementunits, quantitativeresult) VALUES
  ('CC(C)[C@@H](NC(=O)c1cc(=O)[nH]c(N2CC[C@@H](F)C2)n1)c1ccc(OC(F)(F)F)c(F)c1', 'Ki', 'nM', 4.1),
  ('CN(C)c1nc(C(=O)NC(C)(C)c2ccc(C(F)(F)F)c(F)c2)cc(=O)[nH]1', 'Ki', 'nM', 4);

* * *

- systemUnderTest: Rhesus PDE2A3 (Macaca mulatta, UniProt B3VTJ2)
- assaySummary: PDE2 fluorescence polarization (IMAP FP) inhibition assay, rhesus PDE2A3
- Assay type: biochemical, rhesus macaque
- runConditions: Lab B; read-out: Rhesus PDE2 Ki (nM) - Lab B
reportedMetric: Ki (nM)

INSERT INTO measurements (molecule, systemundertest, quantitativeresult) VALUES
  ('CC(C)[C@@H](NC(=O)c1cc(=O)[nH]c(N(C)C)n1)c1ccc(C(F)(F)F)cc1 [Example 47]', 'Rhesus PDE2A3 (Macaca mulatta, UniProt B3VTJ2)', 0.43);

(1) CN(C)c1nc(C(=O)N[C@@H](c2ccc(C3CC3)cc2)C2CC2)cc(=O)[nH]1 [Example 115]
(2) CC(C)[C@@H](NC(=O)c1cc(=O)[nH]c(N(C)C)n1)c1ccc(OC(F)(F)F)c(F)c1 [Example 149]
(3) CN(C)c1nc(C(=O)NC(C)(C)c2ccc(C(F)(F)F)cc2F)cc(=O)[nH]1 [Example 82]
### Prompt Ordering: ascending Ki. # format: label list in the order the request specifies
### Response 2, 1, 3
(2: 0.51 nM, 1: 1 nM, 3: 2 nM)
